# EXPERIMENT_SUMMARY: self-splicing fitness, log relative to wild type (ln ratio); higher = more splicing; Tetrahymena group I intron in knt gene, E. coli kanamycin selection, DiMSum; sequences stand for … in CUCUCU…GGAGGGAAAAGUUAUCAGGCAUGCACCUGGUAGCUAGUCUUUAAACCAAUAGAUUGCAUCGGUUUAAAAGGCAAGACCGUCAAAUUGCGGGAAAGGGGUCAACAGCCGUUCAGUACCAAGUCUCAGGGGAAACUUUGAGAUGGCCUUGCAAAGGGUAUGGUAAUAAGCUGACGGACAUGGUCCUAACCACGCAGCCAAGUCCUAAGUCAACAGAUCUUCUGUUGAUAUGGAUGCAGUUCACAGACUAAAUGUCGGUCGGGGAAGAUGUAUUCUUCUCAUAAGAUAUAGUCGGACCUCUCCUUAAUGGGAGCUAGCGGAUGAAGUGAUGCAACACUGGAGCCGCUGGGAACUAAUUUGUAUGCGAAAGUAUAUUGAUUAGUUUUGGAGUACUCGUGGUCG;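 note: selection with 25 µg/mL kanamycin versus none on LB agar overnight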
# TEST_CONDITIONS: 37 °C
READOUT_KIND: self-splicing fitness (ln)
Lab note: jot down the number only; don't add units.

Illustrative cases are given below, each with its answer.
Can you share its self-splicing fitness (ln)? I mean this sequence: "GGCGAGCAAUAUUACGCUGU"
-2.66

Can you share its self-splicing fitness (ln)? I mean this sequence: "UACGAGCAAUAUUACGACAC"
-3.28

Can you share its self-splicing fitness (ln)? I mean this sequence: "CUUUAGCAAUAUUACGCUUA"
-3.35

New cases:
Can you share its self-splicing fitness (ln)? I mean this sequence: "GUGGAGCAAUAUUACGCUUU"
-2.41

Can you share its self-splicing fitness (ln)? I mean this sequence: "UUCAAGCAAUAUUACGGAUU"
-1.96

Can you share its self-splicing fitness (ln)? I mean this sequence: "GACUAGCAAUAUUACGAUGG"
-2.24

Can you share its self-splicing fitness (ln)? I mean this sequence: "UGCUAGCAAUAUUACGCUUC"
-0.347

Can you share its self-splicing fitness (ln)? I mean this sequence: "CAUGAGCAAUAUUACGUAAU"
-2.73

Can you share its self-splicing fitness (ln)? I mean this sequence: "CAGCAGCAAUAUUACGCAGG"
-0.864

Can you share its self-splicing fitness (ln)? I mean this sequence: "GGCUAGCAAUAUUACGUGGA"
-0.667

Can you share its self-splicing fitness (ln)? I mean this sequence: "CAACAGCAAUAUUACGUGCA"
-1.57

* * *

# EXPERIMENT_SUMMARY: self-splicing fitness, log relative to wild type (ln ratio); higher = more splicing; Tetrahymena group I intron in knt gene, E. coli kanamycin selection, DiMSum; sequences stand for … in CUCUCU…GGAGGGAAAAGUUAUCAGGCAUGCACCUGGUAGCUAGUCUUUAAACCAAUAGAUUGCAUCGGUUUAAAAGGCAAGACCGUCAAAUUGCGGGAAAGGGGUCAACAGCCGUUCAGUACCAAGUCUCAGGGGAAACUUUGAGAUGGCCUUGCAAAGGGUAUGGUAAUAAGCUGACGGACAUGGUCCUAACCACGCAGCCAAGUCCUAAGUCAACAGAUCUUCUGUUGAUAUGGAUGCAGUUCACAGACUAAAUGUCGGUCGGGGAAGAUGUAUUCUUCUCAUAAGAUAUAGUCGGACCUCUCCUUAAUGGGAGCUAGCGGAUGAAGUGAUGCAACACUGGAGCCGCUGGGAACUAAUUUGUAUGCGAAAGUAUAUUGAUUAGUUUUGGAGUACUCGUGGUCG
# TEST_CONDITIONS: 37 °C
Label rule, in plain words: self-splicing fitness (ln) of -2 and up is label 1, under -2 is label 0.

Worked examples, 4 sequences total:
I'd appreciate it if you could say whether "AAAAAGCAAUAUUACGUCGA" has self-splicing fitness (ln) at least equal to -2.
label 1

I'd appreciate it if you could say whether "AACGAGCAAUAUUACGCUAA" has self-splicing fitness (ln) at least equal to -2.
label 0

I'd appreciate it if you could say whether "AGUCAGCAAUAUUACGCCUG" has self-splicing fitness (ln) at least equal to -2.
label 1

I'd appreciate it if you could say whether "GACCAGCAAUAUUACGACAU" has self-splicing fitness (ln) at least equal to -2.
label 1

New cases:
I'd appreciate it if you could say whether "ACCCAGCAAUAUUACGCUCU" has self-splicing fitness (ln) at least equal to -2.
label 1

I'd appreciate it if you could say whether "CCAAAGCAAUAUUACGCUUC" has self-splicing fitness (ln) at least equal to -2.
label 0

I'd appreciate it if you could say whether "GCCCAGCAAUAUUACGCUGC" has self-splicing fitness (ln) at least equal to -2.
label 1

I'd appreciate it if you could say whether "GUAUAGCAAUAUUACGUUCU" has self-splicing fitness (ln) at least equal to -2.
label 1

I'd appreciate it if you could say whether "CGCCAGCAAUAUUACGACUU" has self-splicing fitness (ln) at least equal to -2.
label 1

I'd appreciate it if you could say whether "UGUUAGCAAUAUUACGGCUC" has self-splicing fitness (ln) at least equal to -2.
label 1
